- experimental protocol: PK of compound of Formula (Ia) after single subcutaneous dose of solution formulations in beagle dogs
- Assay type: in vivo
- assay conditions: male, beagle, dog, plasma, sc, 12 mg/kg, male beagle dogs, single SC 12 mg/kg, 500 mg/mL solution X (5.00% ethanol, 1.91% poloxamer 188), mean ± SD, n = 3; read-out: AUC0-24 h
quantity name: AUC(0-t) (µM·h)
Answers are plain numbers, in µM·h.

What the record says about CC(C)(C#Cc1ccc(-c2ccc(Cl)c3c(NS(C)(=O)=O)nn(CC(F)(F)F)c23)c([C@H](Cc2cc(F)cc(F)c2)NC(=O)Cn2nc(C(F)(F)F)c3c2C(F)(F)[C@@H]2C[C@H]32)n1)S(C)(=O)=O : AUC(0-t) is 0.663

* * *

- experimental protocol: PK of compound of Formula (Ia) after single intramuscular dose of solution formulations in Wistar Han rats
- Assay type: in vivo
- assay conditions: Wistar Han, rat, plasma, intramuscular, 100 mg/kg, Solution H (~400 mg/mL); IM 100 mg/kg; Wistar Han rats; mean, n = 4; 72.0 h; read-out: Plasma concentration, Mean
quantity name: concentration at 72 h (nM)
One number for each entry, in nM.

What the record says about CC(C)(C#Cc1ccc(-c2ccc(Cl)c3c(NS(C)(=O)=O)nn(CC(F)(F)F)c23)c([C@H](Cc2cc(F)cc(F)c2)NC(=O)Cn2nc(C(F)(F)F)c3c2C(F)(F)[C@@H]2C[C@H]32)n1)S(C)(=O)=O : concentration at 72 h is 397

* * *

- experimental protocol: PK of compound of Formula (Ia) after single subcutaneous dose of solution formulations in beagle dogs
- Format: in vivo
- assay conditions: male, beagle, dog, plasma, sc, 6 mg/kg, 8.00 h; mean, n = 3 dogs; SC 6 mg/kg; solution V, 300 mg/mL
quantity name: concentration at 8 h (nM)
Answers are plain numbers, in nM.

What the record says about CC(C)(C#Cc1ccc(-c2ccc(Cl)c3c(NS(C)(=O)=O)nn(CC(F)(F)F)c23)c([C@H](Cc2cc(F)cc(F)c2)NC(=O)Cn2nc(C(F)(F)F)c3c2C(F)(F)[C@@H]2C[C@H]32)n1)S(C)(=O)=O : concentration at 8 h is 10.4

* * *

- experimental protocol: PK of compound of Formula (Ia) after single subcutaneous dose of solution formulations in Wistar Han rats
- Type: in vivo
- assay conditions: male, Wistar Han, rat, plasma, sc, 50 mg/kg, 72.0 h; mean, n = 5 rats; SC 50 mg/kg; solution U, 500 mg/mL
quantity name: concentration at 72 h (nM)
Give bare numbers, in nM.

What the record says about CC(C)(C#Cc1ccc(-c2ccc(Cl)c3c(NS(C)(=O)=O)nn(CC(F)(F)F)c23)c([C@H](Cc2cc(F)cc(F)c2)NC(=O)Cn2nc(C(F)(F)F)c3c2C(F)(F)[C@@H]2C[C@H]32)n1)S(C)(=O)=O : concentration at 72 h is 197

* * *

- experimental protocol: PK of compound of Formula (Ia) after single subcutaneous dose of solution formulations in Wistar Han rats
- Type: in vivo
- assay conditions: male, Wistar Han, rat, plasma, sc, 50 mg/kg, 72.0 h; mean, n = 3 rats; SC 50 mg/kg; solution V, 300 mg/mL
quantity name: concentration at 72 h (nM)
Answers are plain numbers, in nM.

What the record says about CC(C)(C#Cc1ccc(-c2ccc(Cl)c3c(NS(C)(=O)=O)nn(CC(F)(F)F)c23)c([C@H](Cc2cc(F)cc(F)c2)NC(=O)Cn2nc(C(F)(F)F)c3c2C(F)(F)[C@@H]2C[C@H]32)n1)S(C)(=O)=O : concentration at 72 h is 148

* * *

- experimental protocol: PK of compound of Formula (Ia) after single subcutaneous dose of solution formulations in Wistar Han rats
- Format: in vivo
- assay conditions: male, Wistar Han, rat, plasma, sc, 50 mg/kg, 1008 h; individual rats; SC 50 mg/kg; solution R, 400 mg/mL
quantity name: concentration at 1008 h (nM)
Give bare numbers, in nM.

What the record says about CC(C)(C#Cc1ccc(-c2ccc(Cl)c3c(NS(C)(=O)=O)nn(CC(F)(F)F)c23)c([C@H](Cc2cc(F)cc(F)c2)NC(=O)Cn2nc(C(F)(F)F)c3c2C(F)(F)[C@@H]2C[C@H]32)n1)S(C)(=O)=O [compound of Formula (Ia)] : concentration at 1008 h is 303

* * *

- experimental protocol: PK of compound of Formula (Ia) after single subcutaneous dose of solution formulations in beagle dogs
- Format: in vivo
- assay conditions: male, beagle, dog, plasma, sc, 12 mg/kg, beagle dogs, SC 12 mg/kg, 400 mg/mL solution Z (3.13% poloxamer 188), 72.0 h, Mean n = 3
quantity name: concentration at 72 h (nM)
Answers are plain numbers, in nM.

What the record says about CC(C)(C#Cc1ccc(-c2ccc(Cl)c3c(NS(C)(=O)=O)nn(CC(F)(F)F)c23)c([C@H](Cc2cc(F)cc(F)c2)NC(=O)Cn2nc(C(F)(F)F)c3c2C(F)(F)[C@@H]2C[C@H]32)n1)S(C)(=O)=O : concentration at 72 h is 65.1

* * *

- experimental protocol: PK of compound of Formula (Ia) after single subcutaneous dose of solution formulations in Wistar Han rats
- Format: in vivo
- assay conditions: male, Wistar Han, rat, plasma, sc, 50 mg/kg, male Wistar Han rats, single SC 50 mg/kg, 500 mg/mL solution X (5.00% ethanol, 1.91% poloxamer 188), mean ± SD, n = 3; read-out: AUC0-4704 h
quantity name: AUC(0-t) (µM·h)
Numbers only, in µM·h.

What the record says about CC(C)(C#Cc1ccc(-c2ccc(Cl)c3c(NS(C)(=O)=O)nn(CC(F)(F)F)c23)c([C@H](Cc2cc(F)cc(F)c2)NC(=O)Cn2nc(C(F)(F)F)c3c2C(F)(F)[C@@H]2C[C@H]32)n1)S(C)(=O)=O : AUC(0-t) is 806

* * *

- experimental protocol: PK of compound of Formula (Ia) after single subcutaneous dose of solution formulations in beagle dogs
- Type: in vivo
- assay conditions: male, beagle, dog, plasma, sc, 12 mg/kg, beagle dogs, SC 12 mg/kg, 500 mg/mL solution X (5.00% ethanol, 1.91% poloxamer 188), 48.0 h, Mean n = 3
quantity name: concentration at 48 h (µM)
Give bare numbers, in µM.

What the record says about CC(C)(C#Cc1ccc(-c2ccc(Cl)c3c(NS(C)(=O)=O)nn(CC(F)(F)F)c23)c([C@H](Cc2cc(F)cc(F)c2)NC(=O)Cn2nc(C(F)(F)F)c3c2C(F)(F)[C@@H]2C[C@H]32)n1)S(C)(=O)=O [compound of Formula (Ia)] : concentration at 48 h is 0.0447

* * *

- experimental protocol: PK of compound of Formula (Ia) after single subcutaneous dose of solution formulations in beagle dogs
- Type: in vivo
- assay conditions: male, beagle, dog, plasma, sc, 12 mg/kg, male beagle dogs, single SC 12 mg/kg, 400 mg/mL solution Z (3.13% poloxamer 188), mean ± SD, n = 3; read-out: AUC0-1344 h
quantity name: AUC(0-t) (µM·h)
One number for each entry, in µM·h.

What the record says about CC(C)(C#Cc1ccc(-c2ccc(Cl)c3c(NS(C)(=O)=O)nn(CC(F)(F)F)c23)c([C@H](Cc2cc(F)cc(F)c2)NC(=O)Cn2nc(C(F)(F)F)c3c2C(F)(F)[C@@H]2C[C@H]32)n1)S(C)(=O)=O : AUC(0-t) is 147

* * *

- experimental protocol: PK of compound of Formula (Ia) after single subcutaneous dose of solution formulations in beagle dogs
- Type: in vivo
- assay conditions: male, beagle, dog, plasma, sc, 12 mg/kg, beagle dogs, SC 12 mg/kg, 400 mg/mL solution W (5.00% ethanol, 1.57% poloxamer 188), 48.0 h, Mean n = 3
quantity name: concentration at 48 h (nM)
Answers are plain numbers, in nM.

What the record says about CC(C)(C#Cc1ccc(-c2ccc(Cl)c3c(NS(C)(=O)=O)nn(CC(F)(F)F)c23)c([C@H](Cc2cc(F)cc(F)c2)NC(=O)Cn2nc(C(F)(F)F)c3c2C(F)(F)[C@@H]2C[C@H]32)n1)S(C)(=O)=O : concentration at 48 h is 48.2

* * *

- experimental protocol: PK of compound of Formula (Ia) after single subcutaneous dose of solution formulations in beagle dogs
- Assay type: in vivo
- assay conditions: male, beagle, dog, plasma, sc, 12 mg/kg, beagle dogs, SC 12 mg/kg, 400 mg/mL solution W (5.00% ethanol, 1.57% poloxamer 188), 1008 h, animals #1-#3
- Procedure: Formulations containing the compound of Formula (Ia), or a pharmaceutically acceptable salt thereof, were prepared as solutions and optionally administered subcutaneously or intramuscularly to rats, rabbits, and/or dogs. A solution of about 400 mg/mL of the compound of Formula (Ia) having 17.00 w/w % water, 36.40 w/w % PEG 300, 35.20 w/w % of a sodium salt of a compound of Formula (Ia), 5.00 w/w % ethanol, and 6.40 w/w % poloxamer 188 was prepared. […]
quantity name: concentration at 1008 h (nM)
Give bare numbers, in nM.

What the record says about CC(C)(C#Cc1ccc(-c2ccc(Cl)c3c(NS(C)(=O)=O)nn(CC(F)(F)F)c23)c([C@H](Cc2cc(F)cc(F)c2)NC(=O)Cn2nc(C(F)(F)F)c3c2C(F)(F)[C@@H]2C[C@H]32)n1)S(C)(=O)=O [compound of Formula (Ia)] : concentration at 1008 h is 80.7
